This collection of values is drawn from PubChem BioAssay (NCI).

Recorded measurements of TGI, one per entry
system: HS 578T breast; experiment: NCI tumour cell line growth inhibition, 48 h

Observe how each entry below is paired with its result.
[
  {
    "compound": "Nc1cc2c(nnn2C2OC(COCc3ccccc3)C(OCc3ccccc3)C2OCc2ccccc2)c(=O)[nH]1 (stereo unspecified)",
    "TGI": "> 100 µM"
  },
  {
    "compound": "c1ccc2c(c1)Nc1ccccc1[P+]21c2ccccc2Nc2ccccc21",
    "TGI": "1.36 µM"
  },
  {
    "compound": "COc1ccc2c(c1)=C(C=C1C=CN(O)C=C1)C(=O)N=2",
    "TGI": "> 86.3 µM"
  },
  {
    "compound": "CCCN1CC=C(c2cc(C(=O)OCC)[nH]c2-c2cc(C)no2)C1=O",
    "TGI": "> 100 µM"
  },
  {
    "compound": "CCN(CC)CCCC(C)Nc1ccnc2cc3ccccc3cc12 (stereo unspecified)",
    "TGI": "> 100 µM"
  }
]

Now consider the entry below.
Request: What does the data say about its TGI? Entry: `N=C(N)c1ccc(OCCOCCOc2ccc(C(=N)N)cc2)cc1`
Result: > 100 µM

---

tested on: DU-145 prostate; assay: NCI tumour cell line growth inhibition, 48 h
Each item that follows carries a reported GI50.

[
  {
    "compound_structure_string": "Nc1ncnc2c1ncn2Cc1ccc(C23CC4CC(CC(C4)C2)C3)c(OCc2cc(F)c(F)cc2F)c1",
    "observable": "GI50",
    "observed_result": "15.3 µM"
  },
  {
    "compound_structure_string": "CCCCCCc1cc2cc(-c3nc4ccccc4[nH]3)c(=Nc3ccccc3C)oc2cc1O",
    "observable": "GI50",
    "observed_result": "2.96 µM"
  }
]

Switching to the query record.
Request: Could you share what GI50 was measured for `CC/C(=C(/c1ccc(OCCN(C)C)cc1)c1ccc(OC(=O)CCC(=O)c2c(C)[nH]c(/C=C3\N=C(c4ccc[nH]4)C=C3OC)c2C)cc1)c1ccccc1` , tested on DU-145 prostate?
Result: 3.27 µM

---

tested on: IGROV1 ovarian; experiment: NCI tumour cell line growth inhibition, 48 h
observable: TGI

See these solved cases before continuing.
[
  {
    "compound": "COc1ccc(/C=C/c2sc3ccccc3[n+]2CCCCI)cc1OC",
    "tested_on": "IGROV1 ovarian",
    "TGI": "> 10 µM"
  },
  {
    "compound": "CCCCCCCC(=O)NCC(O)CNC(=O)CCCCCCC",
    "tested_on": "IGROV1 ovarian",
    "TGI": "> 100 µM"
  }
]

Request: Consider the compound `COc1ccc(-n2cc(-c3cc(OC)c(OC)c(OC)c3)nc2SCc2ccccc2)cc1` and give its measured TGI.
Result: > 100 µM

Request: Value lookup for TGI; key = CCOC(O)(NC(=O)C(C(F)(F)F)C(F)(F)F)C(F)(F)F (centres undefined)
Result: > 100 µM

---

test system: BT-549 breast; test: NCI tumour cell line growth inhibition, 48 h
observable: TGI (µM)
Enter your answer as a number in µM; do not include the unit.

[
  {
    "molecule": "Nc1cc2c(nnn2C2OC(COCc3ccccc3)C(OCc3ccccc3)C2OCc2ccccc2)c(=O)[nH]1 (stereo not given)",
    "TGI / µM": 90.3
  },
  {
    "molecule": "COC(=O)[C@H](Cc1ccccc1)NC(=O)N1CCCN(C(=O)N[C@@H](Cc2ccccc2)C(=O)OC)CCCN(C(=O)N[C@@H](Cc2ccccc2)C(=O)OC)CCC1",
    "TGI / µM": 57.1
  },
  {
    "molecule": "O=[N+]([O-])c1ccc(-c2nc3ccc([N+](=O)[O-])cc3[nH]2)cc1",
    "TGI / µM": 85.7
  },
  {
    "molecule": "O=c1cc(-c2ccccc2)oc2cc(O)c(O)c(O)c12",
    "TGI / µM": 87.5
  },
  {
    "molecule": "CC(=O)c1c(SCCN2CCCC2)n(-c2ccccc2)c(=S)n(-c2ccccc2)c1=O",
    "TGI / µM": 28.6
  }
]

Next:
Request: Which TGI is listed for N#CC(c1nc2ccccc2s1)c1ncnc(Cl)c1[N+](=O)[O-] (stereo not given) ?
Result: 56.3

---

system: NCI-H226 lung; assay: NCI tumour cell line growth inhibition, 48 h
observable: TGI

[
  {
    "compound": "O=C(O)C1=CCCc2ccc3ccccc3c21",
    "TGI": "> 100 µM"
  },
  {
    "compound": "COc1ccc(/C(Cl)=C(/c2ccc(O)cc2)c2ccc(OCCN(C)C)cc2)cc1",
    "TGI": "34.4 µM"
  },
  {
    "compound": "Oc1ccc(CN2CCC(N3CCOCC3)CC2)c2cccnc12",
    "TGI": "> 100 µM"
  }
]

Request: # get_value(readout= TGI, system= NCI-H226 lung) for `Nc1nc2sc3ccccc3c(=O)n2n1`
Result: > 100 µM

Request: Hi! What's the reported TGI for `N=C(N)c1ccc(OCCOCCOc2ccc(C(=N)N)cc2)cc1` on NCI-H226 lung?
Result: > 100 µM

Request: Item: `CCCN1CC=C(c2cc(C(=O)OCC)[nH]c2-c2cc(C)no2)C1=O` Test system: NCI-H226 lung Read-out: TGI Value: ?
Result: > 100 µM

Request: Checklist item: TGI tested on NCI-H226 lung, entry C=C(C)C1Cc2c(cc(OC)c3c(=O)c4cccc(O)c4oc23)O1 (stereo unspecified) , value?
Result: 44 µM

Request: Value wanted: TGI (NCI-H226 lung) of entry `O=C(CC(=O)Nc1cccc(Cl)c1)NNCC(=O)Nc1nnc(-c2ccccc2)s1`
Result: 75.7 µM

Request: Item: `N#Cc1cccc(OCc2nc(N)nc(N)c2-c2ccc(Cl)c(Cl)c2)c1` Test system: NCI-H226 lung Read-out: TGI Value: ?
Result: > 100 µM

Request: Missing value: TGI, NCI-H226 lung, entry CC1(C)/C(=N\O)C2(C#N)CCC1C2 (stereo unspecified) . Fill in?
Result: > 100 µM

Request: Form entry - test system: NCI-H226 lung; read-out: TGI; compound: `COc1cc2c(cc1O)-c1c(cnn1-c1ccc([N+](=O)[O-])cc1)CCC2`
Result: 47.5 µM

Request: Which TGI is reported with NCI-H226 lung for this entry: `CCOC(=O)c1c(-c2ccccc2)oc(-c2ccccc2)c1C(=O)OCC` ?
Result: > 100 µM

Request: Form entry - test system: NCI-H226 lung; read-out: TGI; compound: `CC(C)[C@H]1CC[C@H]2[C@@H](CC[C@H]3[C@](C)(CN)CCC[C@]23C)C1`
Result: 23.5 µM

Request: Test system NCI-H226 lung; read-out TGI; what value for `O=C(Nc1ccccc1)c1nn(-c2cc(S(=O)(=O)O)c([N+](=O)[O-])cc2Cl)[n+](-c2cc(S(=O)(=O)[O-])c([N+](=O)[O-])cc2Cl)n1` ?
Result: > 100 µM

Request: Requested read-out TGI, target or system NCI-H226 lung, entry CO/C=C(/C(=O)OC)c1ccccc1[C@@H]1CC1c1cccc(F)c1 (stereo partly specified)
Result: > 100 µM

Request: Query the reported TGI for NCI-H226 lung; item: Cc1ccc(NP(=O)(Oc2ccccc2)N(CCCl)CCCl)cc1 (stereo unspecified)
Result: > 100 µM

---

tested on: HCT-15 colon; assay: NCI tumour cell line growth inhibition, 48 h
observable: TGI (µM)
Only the number, expressed in µM, is required.

Completed entries (count: 4):
[
  {
    "compound_structure_string": "COC(=O)C1=C(C)NC(C)=C(C(=O)OC)C1/C=C(\\Cl)c1ccc(Cl)c(Cl)c1",
    "TGI [µM]": 26.9
  },
  {
    "compound_structure_string": "CC(C)(O)C#Cc1ccc(/C=C/C(=O)c2ccccc2)s1",
    "TGI [µM]": 30.8
  },
  {
    "compound_structure_string": "O=C(C=P(c1ccccc1)(c1ccccc1)c1ccccc1)c1cccc(-c2cccc([N+](=O)[O-])c2)c1",
    "TGI [µM]": 21.1
  },
  {
    "compound_structure_string": "CN(c1cc2ncc(=O)[nH]c2cc1NC(N)=NCc1ccc(Cl)cc1)C1CCCCC1",
    "TGI [µM]": 15.4
  }
]

Please turn your attention to the following entry.
Request: Requested field: TGI. Item: `[Cl][Sn]([Cl])([c]1ccccc1)[c]1ccccc1`
Result: 23.2

---

test system: PC-3 prostate; experiment: NCI tumour cell line growth inhibition, 48 h
The reader will find reported TGI values listed item by item below.

[
  {
    "compound": "N#Cc1cccc(OCc2nc(N)nc(N)c2-c2ccc(Cl)c(Cl)c2)c1",
    "tested_on": "PC-3 prostate",
    "observable": "TGI",
    "observed_result": "> 100 µM"
  },
  {
    "compound": "CS(=O)(=O)OC1CN2CCC1CC2 (stereo not drawn)",
    "tested_on": "PC-3 prostate",
    "observable": "TGI",
    "observed_result": "> 100 µM"
  }
]

Next item in the queue.
Request: Value lookup for TGI; key = `Cc1ncc([N+](=O)[O-])n1CCN(C)C(=O)CCCn1ccnc1[N+](=O)[O-]`
Result: > 100 µM
